Where do these numbers come from? They come from patent US7157430B2.

Entries and their pKi values follow.
# target: UniProtKB P29452
# Sequence (P29452 123-296 limits assumed): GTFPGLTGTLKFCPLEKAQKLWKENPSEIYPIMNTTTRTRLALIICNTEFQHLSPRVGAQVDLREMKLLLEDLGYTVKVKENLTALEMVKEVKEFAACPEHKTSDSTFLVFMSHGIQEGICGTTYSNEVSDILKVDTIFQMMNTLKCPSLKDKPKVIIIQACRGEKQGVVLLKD
# Sequence (P29452 315-402 limits assumed): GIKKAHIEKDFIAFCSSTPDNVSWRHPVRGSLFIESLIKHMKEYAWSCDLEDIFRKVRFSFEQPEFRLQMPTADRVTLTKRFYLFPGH
# procedureText: Dissociation constant Ki and irreversible rate constant k3 for irreversible inhibitors, ICE
# runParameters: continuous assay 60 min, reaction initiated by adding enzyme
pKi here is simply -log10 of the concentration when that concentration is written in mol/L.

Prompt line: Recall the reported pKi of `CC(C)[C@H](NC(=O)COc1cccc2ccccc12)C(=O)N[C@@H](CC(=O)O)C(=O)COc1cc(F)cc(F)c1` when tested on UniProtKB P29452.
Response line: 6.23

Prompt line: Would you please give the reported pKi of O=C(O)CC(NC(=O)[C@@H]1Cc2ccccc2N1C(=O)COc1cccc2ccccc12)C(=O)CF (some centres unmarked) with UniProtKB P29452?
Response line: 6.83

Prompt line: State, for UniProtKB P29452, measured pKi of the compound listed here: CC(C)[C@H](NC(=O)COc1cccc2ccccc12)C(=O)N[C@@H](CC(=O)O)C(=O)COP(C)(=O)c1ccccc1 (some centres unmarked)
Response line: 6.88

Prompt line: State, for UniProtKB P29452, measured pKi of the compound listed here: `CC(C)C[C@H](NC(=O)COc1ccccc1-c1ccccc1)C(=O)N[C@@H](CC(=O)O)C(=O)COP(=O)(c1ccccc1)c1ccccc1`
Response line: 7.01

Prompt line: Please look at O=C(O)CC(NC(=O)[C@@H]1Cc2ccccc2CN1C(=O)COc1cccc2ccccc12)C(=O)CF (mixture of isomers) and tell me its recorded pKi on UniProtKB P29452.
Response line: 6.43
